Ref: patent US20140213531A1

# target_under_test: Tryptase, from human lung (human, UniProt Q15661 31-275, limits assumed)
# Sequence (Q15661 31-275 limits assumed): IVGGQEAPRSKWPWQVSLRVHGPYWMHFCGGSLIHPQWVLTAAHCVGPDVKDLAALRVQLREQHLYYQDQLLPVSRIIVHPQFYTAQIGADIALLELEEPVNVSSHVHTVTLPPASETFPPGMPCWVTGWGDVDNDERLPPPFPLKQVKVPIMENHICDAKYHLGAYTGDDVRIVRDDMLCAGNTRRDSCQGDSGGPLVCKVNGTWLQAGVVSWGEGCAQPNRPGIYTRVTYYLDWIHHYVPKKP
# test_name: cell-based or functional assay
quantity_name: % inhibition at 100 µM (%)
Give your result in % as a bare value.

Qu. What does the data say about its % inhibition at 100 µM? Entry: ICTXSDPPICR (HELM PEPTIDE1{I.C.T.[Nle].S.D.P.P.I.C.R.[dP].P}$PEPTIDE1,PEPTIDE1,2:R3-10:R3|PEPTIDE1,PEPTIDE1,1:R1-13:R2$$$V2.0; SMILES CCCC[C@@H]1NC(=O)[C@H]([C@@H](C)O)NC(=O)[C@@H]2CSSC[C@H](NC(=O)[C@H]([C@@H](C)CC)NC(=O)[C@@H]3CCCN3C(=O)[C@@H]3CCCN3C(=O)[C@H](CC(=O)O)NC(=O)[C@H](CO)NC1=O)C(=O)N[C@@H](CCCNC(=N)N)C(=O)N1CCC[C@@H]1C(=O)N1CCC[C@H]1C(=O)N[C@@H]([C@@H](C)CC)C(=O)N2) [Example 22]
Ans. 3.8
